For each record, write down the corresponding ABSOLUTE EOSINOPHIL.
species on record: Rattus norvegicus; assay: DrugMatrix - Regimen: Daily Repeat; assay type: toxicity, organism-based, Sprague-Dawley; parameters: regimen Daily Repeat, gender Male, age 6-8 weeks; details: in vivo, po, 0 mg/kg, 72 h, tissue Blood, route oral GAVAGE, dose level Control, time 3 day, […]
Report the figure in CELLS/uL without appending any unit label.

Qu. Give recorded ABSOLUTE EOSINOPHIL. O=C(O)Cc1ccccc1Nc1c(Cl)cccc1Cl
Ans. 0

Qu. Give ABSOLUTE EOSINOPHIL for S=C=Nc1cccc2ccccc12 [1-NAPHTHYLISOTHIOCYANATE]
Ans. 47.5

Qu. Give a short answer stating reported ABSOLUTE EOSINOPHIL for CC(=O)Nc1cccc(O)c1 .
Ans. 0

Qu. # return recorded ABSOLUTE EOSINOPHIL for input CC(C)Cc1ccc(C(C)C(=O)O)cc1 (stereo unspecified)
Ans. 0

Qu. Indicate the recorded ABSOLUTE EOSINOPHIL value for this compound: C[C@]12CC[C@@H]3c4ccc(O)cc4CC[C@H]3[C@@H]1CC[C@@H]2O
Ans. 41.83

Qu. Please look at this compound and report its ABSOLUTE EOSINOPHIL: CCOC(=O)C(C)(C)Oc1ccc(Cl)cc1 [CLOFIBRATE]
Ans. 37.33

Qu. Quick one: give measured ABSOLUTE EOSINOPHIL for C[C@H]1O[C@@H](O[C@H]2[C@@H](O)C[C@H](O[C@H]3[C@@H](O)C[C@H](O[C@H]4CC[C@@]5(C)[C@H](CC[C@@H]6[C@@H]5CC[C@]5(C)[C@@H](C7=CC(=O)OC7)CC[C@]65O)C4)O[C@@H]3C)O[C@@H]2C)C[C@H](O)[C@@H]1O
Ans. 13.67

Qu. Give the measured ABSOLUTE EOSINOPHIL for CCCCCCCCc1ccc(O)cc1
Ans. 0

Qu. Dear colleague, please send me the reported ABSOLUTE EOSINOPHIL for CC(C)(Oc1ccc(C2CCCc3ccccc32)cc1)C(=O)O (stereo unspecified) when you can.
Ans. 47.67

Qu. Name the recorded ABSOLUTE EOSINOPHIL of the item COCCOC(=O)C1=C(C)NC(C)=C(C(=O)OC(C)C)C1c1cccc([N+](=O)[O-])c1 (stereo unspecified) in your answer.
Ans. 0

Qu. Let me know recorded ABSOLUTE EOSINOPHIL for COc1ccc2[nH]c([S+]([O-])Cc3ncc(C)c(OC)c3C)nc2c1 (stereo unspecified) , thanks.
Ans. 70.67

Qu. Quick one: give measured ABSOLUTE EOSINOPHIL for CC/C(=C(/CC)c1ccc(O)cc1)c1ccc(O)cc1
Ans. 14

Qu. Return value of ABSOLUTE EOSINOPHIL for input Cc1cccc(Nc2ccncc2S(=O)(=O)NC(=O)NC(C)C)c1 [TORSEMIDE] , no commentary.
Ans. 41.83

Qu. Please list ABSOLUTE EOSINOPHIL recorded for the compound CCOC(=O)C1=C(C)NC(C)=C(C(=O)OC)C1c1cccc([N+](=O)[O-])c1 (stereo unspecified)
Ans. 0

Qu. Retrieve ABSOLUTE EOSINOPHIL measured for CC(=O)Nc1ccc(O)cc1 and print it.
Ans. 0

###

Would you mind telling me the reported MEAN CORPUSCULAR HEMOGLOBIN of each entry?
organism: Rattus norvegicus; assay: DrugMatrix - Regimen: Daily Repeat; assay type: toxicity, organism-based, Sprague-Dawley; parameters: regimen Daily Repeat, gender Male, age 6-8 weeks; conditions: in vivo, po, 1500 mg/kg, 72 h, tissue Blood, route oral GAVAGE, dose level High, time 3 day, vehicle .5 % CMC
Please reply with the bare figure in pg and do not write the unit itself.

Qu. Indicate the recorded MEAN CORPUSCULAR HEMOGLOBIN value for this compound: NC(=O)c1cnccn1 [PYRAZINAMIDE]
Ans. 24.8

Qu. Give the value of MEAN CORPUSCULAR HEMOGLOBIN reported for the following: O=C(N[C@H](CO)[C@H](O)c1ccc([N+](=O)[O-])cc1)C(Cl)Cl
Ans. 25.33

Qu. Given the compound C[C@]1(Cn2ccnn2)[C@H](C(=O)O)N2C(=O)C[C@H]2S1(=O)=O , write its reported MEAN CORPUSCULAR HEMOGLOBIN.
Ans. 24.23
